The measured values listed here are drawn from paper PMC8868297.

Tested on: sheep red blood cells
Measurement context: sheep RBCs in DMEM, 1 h, 32 °C, OD405; relative to 1% Triton-X100; negative control polymyxin B nonapeptide
Bridge positions count the residues as written; N and C are the ends. Square brackets hold non-standard residues; d marks the D form. Peptide text beside a SMILES is read from it. S5 = C=CCCC[C@](C)(N)C(=O)O

- Compound: "CC(C)C[C@H](NC(=O)[C@H](Cc1c[nH]c2ccccc12)NC(=O)[C@H](CCCCN)NC(=O)[C@H](CCCCN)NC(=O)[C@]1(C)CCCC=CCCC[C@](C)(NC(=O)[C@H](CCCNC(=N)N)NC(=O)[C@@H](N)CCCCN)C(=O)N[C@@H](C(C)C)C(=O)N[C@@H](CCC(N)=O)C(=O)N[C@@H](CCCNC(=N)N)C(=O)N1)C(=O)N[C@@H](CCCNC(=N)N)C(N)=O [Peptide L8S1] (H-KR[S5]VQR[S5]KKWLR-NH2; staple 3-7)"
  hemolysis at 50 µM: "did not cause hemolysis"
- Compound: "CC[C@H](C)[C@H](NC(=O)[C@H](CCCNC(=N)N)NC(=O)[C@@H](N)CCCCN)C(=O)N[C@H](C(=O)N[C@@H](CCC(N)=O)C(=O)N[C@@H](CCCNC(=N)N)C(=O)N[C@@]1(C)CCCC=CCCC[C@@](C)(C(=O)N[C@@H](CCCNC(=N)N)C(N)=O)NC(=O)[C@H](Cc2c[nH]c3ccccc23)NC(=O)[C@H](CCCCN)NC(=O)[C@H](CCCCN)NC1=O)C(C)C [Peptide L8S2] (H-KRIVQR[S5]KKW[S5]R-NH2; staple 7-11)"
  hemolysis at 50 µM: "did not cause hemolysis"
